System: Swiss mice, Sarcoma 180 sc, mean tumor weight T/C
PROTOCOL_NOTES: NCI In Vivo Anticancer Drug Screen. Data for tumor model Sarcoma 180 (subcutaneous) in Swiss mice
EXPERIMENTAL_SETUP: endpoint: mean tumor weight; dose: 0.5 mg/kg/injection; schedule: Q01DX007 (ip); vehicle: carboxymethylcellulose (CMC); higher = larger tumour
MEASURED_PARAMETER: T/C

1. COc1ccc2c3c(c4cc(OC)c(OC)cc4c2c1)C[C@H]1CCCCN1C3	82 % of control
2. Nc1nc(=S)c2[nH]cnc2[nH]1	97 % of control
3. Nc1n[se]nc1C(=O)O	96 % of control
4. NC(=O)c1cn(C2OC(CO)C(O)C2O)c2ncnc(N)c12 (stereo not drawn)	87 % of control
5. CN1CCCC1c1cccnc1 (stereo not drawn)	105 % of control
6. O=C(O)c1ccc(N=NSc2ncnc3nc[nH]c23)cc1O	115 % of control
7. O=C(O)c1cc2ccccc2c(Br)c1O.OC1CCC(Br)C2CCC[N-]C12.[Cu+]	74 % of control
8. COC(=O)[C@H]1[C@H]2C[C@@H]3c4[nH]c5cc(OC)ccc5c4CCN3C[C@H]2C[C@@H](OC(=O)c2cc(OC)c(OC)c(OC)c2)[C@@H]1OC	91 % of control
